- Tested on: HCC-2998 colon
- measurement-protocol: NCI tumour cell line growth inhibition, 48 h
# TGI values compiled below
readout-label: TGI

>>> print(df.to_string())
                                    molecule    result
 0  Nc1nc(N)c2ncn(CCCC(c3ccccc3)P(=O)(O)O)c2n1 (stereo unspecified)  > 100 µM
 1  COC(=O)C(=O)C(C(=O)C(=O)Nc1ccc(OC)cc1[N+](=O)[O-])c1nc2ccc([N+](=O)[O-])cc2[nH]c1=O (stereo unspecified)  > 100 µM
 2  COc1cc(OC)c(/C=C/c2cc[n+](C)c3ccccc23)c(OC)c1   13.9 µM
 3  COC(=O)C1[C@@H](C(=O)OC)C(=O)O[C@H]1c1cc(OC)c(OC)c(OC)c1 (stereo partly specified)  > 100 µM
 4  CCCCCCCCCCCC(=O)NCc1ccc(OC(=O)CCCCCCCCCCC)c(OC)c1  > 100 µM
 5                O=c1oc2ccc(Cl)cc2c2ccccc12  > 100 µM
 6                 O=S(O)CCCCCSSSCCCCCS(=O)O  > 100 µM
 7   CNCCCNc1nc2ccccc2c2c(=O)c3cc(F)ccc3sc12   3.29 µM
 8  COc1ccc(/C=C/C(=O)c2sc(NC(=S)NC(=O)c3ccc(Cl)cc3)nc2C)cc1OC  > 100 µM
 9  COC(=O)/C=C\[C@H]1[C@H](C)N1S(=O)(=O)c1ccc(C)cc1 (stereo partly specified)  > 100 µM
10  O=C(c1ccccc1)c1ccc2cccc(OC3OC(CO)C(O)C(O)C3O)c2n1 (stereo unspecified)  > 100 µM
11  CCCN1C/C(=C\c2ccc(O)c(OC)c2)C(=O)/C(=C/c2ccc(O)c(OC)c2)C1  > 100 µM
12  CCc1ccc(C(=O)/C=C/C23c4ccccc4C(c4ccccc42)C2C(=O)NC(=O)C23)cc1 (stereo unspecified)   3.65 µM
13  COc1ccc(C2SC(N)=Nc3c2c(C)nn3C(=O)Cc2ccccc2)cc1 (stereo unspecified)  > 100 µM
14  Nc1c(C(=O)Nc2cccc(C(F)(F)F)c2)sc2nc3c(cc12)C(O)CCC3 (stereo unspecified)  > 100 µM
15  C=C1CC2(CCOc3ccc(Cl)cc32)OC1=O (stereo unspecified)   40.3 µM
16                  C[C@@H](O)CCC(=O)c1ccoc1  > 100 µM
17  Cc1ccccc1NC(=O)/C(=N/NC(=O)CC#N)C1C(=O)N(c2ccccc2)N=C1N (stereo unspecified)  > 100 µM
18  CC1OC(Oc2c(-c3cc(O)c(O)c(O)c3)oc3cc(O)cc(O)c3c2=O)C(O)C(O)C1O (stereo unspecified)  > 100 µM
19  CCC(=O)OC1=C(c2ccccc2)Sc2ccc(Cl)cc2-n2cccc21   > 10 µM
20  CC12CCC([C@H](Nc3cc(C(F)(F)F)cc(C(F)(F)F)c3)C1=O)C2(C)C (stereo partly specified)  > 100 µM

====

- Tested on: NCI-H460 lung
Possible outcomes: Y for active, N for inactive

molecule	tested-on	qualitative-label
Cn1c(-c2ccncc2)c(-c2ccc(F)cc2)c2ncccc21	NCI-H460 lung	N
COc1cc(C2CC(c3cccc(Nc4ccncc4)c3)=NN2c2ccccc2)cc(OC)c1OC (stereo unspecified)	NCI-H460 lung	N
Cn1cc(-c2csc(-c3c[nH]c4ccccc34)n2)c2cnccc21	NCI-H460 lung	N
COc1cc(/C=C/C(=O)c2ccccc2)cc(OC)c1OC	NCI-H460 lung	N
Cc1cc(=O)n2nnc3c4ccccc4ccc3n12	NCI-H460 lung	N
C#CC[C@@H]1C[C@]2(C)[C@H]3CC[C@@H]4[C@H]5C(C(=C)C)CC[C@]5(C(=O)NCCCCN)CC[C@@]4(C)[C@]3(C)CC[C@H]2C(C)(C)[C@H]1OC(C)=O (stereo partly specified)	NCI-H460 lung	N
O=c1ccccc(-c2ccc(Br)cc2)c1O	NCI-H460 lung	Y
Cn1ccc2c1SSSSS2	NCI-H460 lung	N
C[CH2][Sn]([CH2]C)([O]C(=O)c1c(F)cccc1F)[O][Sn]([CH2]C)([CH2]C)[O]C(=O)c1c(F)cccc1F	NCI-H460 lung	N
COc1ccc(C(=O)c2sc3nc4c(cc3c2N)CCCC4)cc1OC	NCI-H460 lung	N
O=C(Nc1ccc(Cl)cc1)Nc1ccc(Cl)c(C(F)(F)F)c1	NCI-H460 lung	N
CCCN1C/C(=C\c2ccc(O)c(OC)c2)C(=O)/C(=C/c2ccc(O)c(OC)c2)C1	NCI-H460 lung	N
COc1ccc(C2C=C(c3ccc(OC)c(OC)c3)N=C3SC=CN32)c(Br)c1 (stereo unspecified)	NCI-H460 lung	N
O=C(O)c1ccc(NCc2nc3cc(Cl)c(Cl)cc3[nH]2)cc1	NCI-H460 lung	N
CC1(C)CC[C@]2(C(=O)Nc3ccccn3)CC[C@]3(C)C(=CC[C@@H]4[C@@]5(C)C/C(=C/c6ccncc6)C(=O)C(C)(C)[C@@H]5CC[C@]43C)[C@@H]2C1	NCI-H460 lung	N
[2H]c1nc(C)nc([2H])c1-c1cc(NC[C@@H](C)c2cccc3c(C(=O)NC)ccnc23)ncn1	NCI-H460 lung	N

====

- Test system: SW-620 colon
- measurement-protocol: NCI tumour cell line growth inhibition, 48 h; in the data active = GI50 below about 0.43 µM; inactive = the rest
Possible outcomes: y for active, n for inactive

                                    compound  qualitative_label
 0          Nc1nc2cc(O)ccc2n2cc3c(F)cccc3c12                  n
 1   CNCCCNc1nc2ccccc2c2c(=O)c3cc(F)ccc3sc12                  n
 2  NCCCCCn1c2c(c3ccccc3c1=O)C(=O)c1ccccc1-2                  y
 3  c1ccc2nc(N/N=C3\CCCCC3C3CCCCC3)ccc2c1 (stereo not given)                  n
 4   Cn1c(-c2ccncc2)c(-c2ccc(F)cc2)c2ncccc21                  n
 5                           Cn1ccc2c1SSSSS2                  n
 6  Cc1ccc(C2=NN(c3ccc(S(C)(=O)=O)cc3)C(=O)CC2)cc1                  y
 7  Nc1c(C(=O)c2cccc(OC[C@@H](O)CO)c2)cnn1-c1ccc(F)cc1                  n
 8          Cc1ccc(CN(C)c2ccc(CO)c(Cl)c2)cc1                  n
 9  CCCN1C/C(=C\c2ccc(O)c(OC)c2)C(=O)/C(=C/c2ccc(O)c(OC)c2)C1                  n
10  Cc1nn2c(/C=N/N=C(N)N)c(-c3ccc(Cl)c([N+](=O)[O-])c3)nc2s1                  n
11  O=C(Nc1ccc(Cl)cc1)Nc1ccc(Cl)c(C(F)(F)F)c1                  n
12  COc1ccc(C(=S)N(C)NC(=O)CC(=O)NN(C)C(=S)c2ccc(OC)cc2)cc1                  n
13  C=C1C(O)C2C(=C(CCC3CC3)C13CC3)C(=O)C(C)(C)C2O (stereo not given)                  n
14  O=C(O)c1ccc(NCc2nc3cc(Cl)c(Cl)cc3[nH]2)cc1                  n
15  CC(=O)N1CCC(Nc2ncc3cc(Oc4ccc(F)cc4F)c(=O)n(C)c3n2)CC1                  n
16    COc1cc(/C=C2\C(=O)Nc3ccccc32)cc(OC)c1O                  n
17  CC(=O)c1c(Nc2cccc(F)c2)[nH]c2c(Cl)cc(Cl)c(Cl)c2c1=O                  y
18  COc1cc2cnc3c(c2c(OC)c1OC)Cc1cc2c(cc1-3)OCO2                  n
19  O=C1/C=C/[C@@H](O)[C@@H]2C[C@@H](O)C[C@H]2/C=C/CCC[C@H](CCc2ccccc2)O1                  y

====

- System: HOP-92 NSCLC
- measurement-protocol: NCI tumour cell line growth inhibition, 48 h
Overview of recorded TGI for various molecules
readout-label: TGI

>>> print(df.to_string())
                                   molecule     tested_on     result
0  COc1cccc2c1O/C(=C\c1ncc([N+](=O)[O-])n1C)C2=O  HOP-92 NSCLC    1.68 µM
1  C/C(CC(=O)Nc1ccc(Cl)c(Cl)c1)=N/NC(=O)C[N+](C)(C)C  HOP-92 NSCLC   > 100 µM
2   Cn1c(-c2ccncc2)c(-c2ccc(F)cc2)c2ncccc21  HOP-92 NSCLC    > 25 µM
3  CCCCC(=O)OC[n+]1ccc(-c2c(COC(=O)NC(C)C)c(COC(=O)NC(C)C)c3n2CCC3)cc1  HOP-92 NSCLC   > 100 µM
4  CC(=O)/C=c1\[nH]/c(=C\C=C\c2ccccc2)c(=O)n1/C=C1\C(=O)Oc2ccccc2C1=O  HOP-92 NSCLC   > 100 µM
5  O=c1ncc(I)cn1C1CC(O)C(CO)O1 (stereo not given)  HOP-92 NSCLC  > 3250 µM
6         Cc1cc2cn3c4ccc(O)cc4nc(N)c3c2cc1C  HOP-92 NSCLC    22.3 µM
7  COc1ccc(OC)c(C#N)c1C#N (tested in a mixture with another compound)  HOP-92 NSCLC   > 100 µM
8         CC(=O)Oc1cc(C(C)C)c(OCCN(C)C)cc1C  HOP-92 NSCLC   > 100 µM
9  CC1CC2(OC2C)C(=O)OC2CCN(C)C/C=C(/COC(=O)C1(C)O)C2=O (stereo not given)  HOP-92 NSCLC   > 100 µM

From: PubChem BioAssay (NCI)
